- Tested on: LXRb homodimer (NR concentration 270 nM)
- protocol-notes: PBM binding z-score (relative to random genomic background probes); higher = stronger binding; sequences stand for … in GC…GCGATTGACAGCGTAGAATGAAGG
experimental-endpoint: PBM binding z-score

Please report the recorded PBM binding z-score for CGTCCAAGGGCAAAGGTCAGTGAAGAGATGACGG . -0.199

Another sequence to look at: AGTCAAAGTTCAGGACGAGGTAGCGTAAAGCACG -0.21

Further, for AGAATGAGGTTACGAAAGATCAGGGAAACGCTTG ? -0.578

Similarly, GATACAGGGTCAAGGCCAGATTACGCGTATTGAT ? 0.268

* * *

- System: LXRa:RXRa (NR concentration 270 nM, RXRa partner concentration 90 nM)
- protocol-notes: PBM binding z-score (relative to random genomic background probes); higher = stronger binding; sequences stand for … in GC…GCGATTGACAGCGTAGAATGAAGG
So basically: PBM binding z-score at 0.7 or higher? That is label 1. Lower than 0.7? That is label 0.

Has ATCTCTAGGTAAGACTCGGTTCAGTGAAGAACGC a recorded PBM binding z-score greater than or equal to 0.7? label 0

Next sequence: CCTAGTTGGTCAAAGTCACACACGCTATAGGTAC label 0

TCATACAGGTGAAGGTAACTCAGGTACGCAGTCG ? label 1

Ok, now ATACCAAGGTGATCGTGAGGTCGTTTATACTAAC label 1

Can you handle GCATATAGGTAATACAAGGTGAAATTCCGATTGT next? label 1

Can you check AGAATGAGGTGATACGTAGATCAGGGAAGAAAGT next? label 0

Follow-up item: AGTCAAAGTTCCCTAGGTAACGTAAGATTCAGCT label 0

Then AGTCAAAGTTCATCTAGGTACCGTAAGATATGCT ? label 1

Queued: GCGACTGGGGCATCAGCAGGTTCCCATAACTTAA label 0

Again, but for GCTTATGGGTCAAAGGTTATAGCATGAATAGAAT label 1

Also need ATCTCTAGGTAACAAGTTCAGGGAAAGAGAGGAC , thanks. label 1

And the next one, GCGACTGGGGCAAAGCAGGTAACCATAAGGTTGG ? label 0

* * *

- Test system: PXR:RXRa (NR concentration 270 nM, RXRa partner concentration 90 nM)
- protocol-notes: PBM binding z-score (relative to random genomic background probes); higher = stronger binding; sequences stand for … in GC…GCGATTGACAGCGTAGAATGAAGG
Outcome label depends on PBM binding z-score relative to 0.3: at/above gives Met, below gives Not met.

Reported PBM binding z-score reaches at least 0.3 for AGAATGAGGTTCCCAAAGATCAGGGAAACGCTTG ? Not met

Param item: ATCTCGAGGTAAAGTTCAGTGAAAGATCGATAGA Met

Also CGAACTAGGTCAGAACAGAACAGTGAAGGATGAT , if possible. Not met

// same read-out, input: CGGACTAGGTCAAGGACAGTGAATCTCCGCACGC Met

Follow-up item: CCTACTGGGCCAAAAACGTCATTGATGCCGATAA Not met

Subsequent entry: CATACTGGGCCAAGGTCATTGATCAGTCAAAGCA Met

Try the sequence GCTTGTAGATCGAGGTTAAGAAAGACTAAGCTAA Met

And the next one, CCGAGTAGGTTATGGGTCATTCAGGCAACGGTGA ? Met

Now this one: CCGACTGGGGCAGTAAGGTTACCATACCATCCGG Not met

Item: CCGACTGGGGCAGAAAGGTTACCACACCATCCGG Met

* * *

- Test system: PPARg:RXRa 270nM:90nM, anti-RXR (NR concentration 270 nM, RXRa partner concentration 90 nM)
- protocol-notes: PBM binding z-score (relative to random genomic background probes); higher = stronger binding; sequences stand for … in GC…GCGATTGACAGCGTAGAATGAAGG
experimental-endpoint: PBM binding z-score
The answer should be a number; do not append a unit.

Field request: PBM binding z-score | item: CGTCCAAGGTCCGAGAGGTCAGTGAATGCCGAGT 0.688

Same for AGAATGAGGTTATACGTAGTTCAGGGAAGAAAGT 2.29

Next entry: CCTAGCAGGCCAGGGTCACTCTAGCATTTCGCTT 1.19

* * *

- Test system: PPARg:RXRa IVT, anti-PPARg (NR concentration 270 nM, RXRa partner concentration 90 nM)
- protocol-notes: PBM binding z-score (relative to random genomic background probes); higher = stronger binding; sequences stand for … in GC…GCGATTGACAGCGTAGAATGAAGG
Classification field: 1 = PBM binding z-score at or over 3; -1 = PBM binding z-score under 3.

Determine whether this sequence has PBM binding z-score no lower than 3: ATCGAAAGGACGAAGGTGAGTATACCCACCCGAA -1

Same lookup for CGAACTAGGTCAGGGACAGTGAATCTCCGCACGC , please. 1

One more sequence: ACTTACGGGTCAACGAGGTTATAGCGCGCGTATA 1

Repeat with CAAACTAGGTCACGAAATGTCAAAGTCGAATGAC 1

Try the sequence CAAACTAGGTCACGACAGGTCAAAGTCGAATGAC 1

Repeat with CGAACTAGGTCATTGACACGACAGTGAATAGTAA 1

Next sequence: GCATATAGGTAATACAAGGTGATAGTCCGATTGT -1

Proceed to CCGACTGGGGCAAAGGTTACTATACTCAGTACGA 1

Let us now turn to TAGCCTAGGTCATGGTCCAGTATACCACGCGAAC 1

Further, for CCTAGTTGGTAAGGAGGTCACACACCGGATATGA ? 1

What about this sequence? CCTAGCAGGCCAAGCTGGGTCACTCAAGGCTTGA -1

Then what about the sequence CGAATGAGGGCATGAGTTGATAGCAAATGCCGAT ? 1

Then AGAATGAGGTTAAAATCAGGGAAACAGAATACAT ? -1

Similarly, TCTTGAAGATCAGCAGGTTAAGAAAGCTGGCCAA ? -1

Follow-up entry: GCAGACAGGTGAAAGGCAGGTAACTCAGGGTGGC -1

* * *

- Test system: RARg:RXRa (NR concentration 270 nM, RXRa partner concentration 90 nM)
- protocol-notes: PBM binding z-score (relative to random genomic background probes); higher = stronger binding; sequences stand for … in GC…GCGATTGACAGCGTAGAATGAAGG
experimental-endpoint: PBM binding z-score
Give only the figure.

Can you share its PBM binding z-score? I mean this sequence: CCTAGTTGGTCAGGAGGACACACACCGGATATGA 1.2

Here is the next sequence: TCTTGTAGCTCAAGCAGGTTAAGAAAGCCTGAGT -0.427

Also, TCTCGGAGGACACGAAGGTCGGAGCTTTCCAGAG please. 1.23

Further, for CGAACTAGGTCAGAACAGGAAAGTGAAGGATGAT ? 2.35

// query: TCGAGTAGGTTAGGGGCATGCAGAATGGCGTCGA 0.351

What do we get for TCATATTGGTAAACAGGTGAAAGTCCGTAAGTTA ? 0.412

Okay, and TAGCCTAGGTCATTCAGGGGCCAATATAGAAAGC ? 6.6

Okay, and TCTGCTAGGTCAGTTGGTCAGCTACCGAGCTGCC ? 2.45

Can you handle AGAATGAGGCTATTAAGATCAGGGAATTGCGGTC next? -0.0314

Same read-out for TCATATAGGTGAAGGTGAAAGTCGAACGATATGA ? 1.42

Next sequence up: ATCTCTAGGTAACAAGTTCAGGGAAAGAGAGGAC 1.77

Another sequence: TCTGCTAGGTCAAGGATGGTCAGCTAATCTGCTA 3.97

Param item: GTGACTGGGGCATCAGCAGGTTACCATAACTTAA 1.36

Record: ATCTCTAGGAAAAGATAGTTCAGTGAATGCAAAT 0.447

Same thing, different sequence: TCTATTAGTTGATTAGGGGAACCGAAACAGCGGA 0.431

Please do the same for TCTATTAGTTGATTAGGGCAACGGAAACAGCGGA as well. 0.729

Moving on to ATATCTAGGTAAGACTCAGTTCAGTGAAGAACGC 0.275

What do we get for CCGAGTAGGTTATGGGGCATGCAGGCAACGGTGA ? 0.72

Note, next up: CCGAGTAGGTTATTGGGCATTCAGGCAACGGTGA 0.0352

Same question, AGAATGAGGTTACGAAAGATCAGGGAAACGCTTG this time 2.26

Next up: CCTTACGGGTCGAGGTTATAGCACGGGTGGTACG 1.78

Same question, GTCCCAAGGTGAATAGGTCGTTGATGAGTAGGCG this time 2.88

Note, next up: TATACAGGGTCAAAGGCCAGTGTACGAATGTCGA 5.7

Can you check AGAATCAGGTTATACGTAGATCAGGGAAGAAAGT next? 0.789

Note, next up: GCGACTGGGGCAAAGCAGGTTACGATAAGGTTGG 0.351

Okay, and GCTAGCAGGCCATTTGGGTTACTCAATGACGGGC ? -0.0989

AGAATGAGGTTATTATGATCAGGGAATTGCGGTC , same question. 1.07

Let us now turn to CCGACTGGGGCAGAAAGGTTACCATACCATCCGG 1.73

# repeat for GCTAGTTGGTCAGTAAAAGGTCACGCACCGGTCG 6.19

Likewise for TCGAGTAGGTTACCAATGGGGCAGTCAGCTTTCT ? 1.29

Another sequence to check: GCGATTGGGGCATCAGCAGGTTACCATAACTTAA 0.779

Follow-up item: GGAACGAGGGCAAAGTTGTTAGCATCTGTCGACG 1.47

Also need CGAACTAGGTCAGAACAGGACAGTGTAGGATGAT , thanks. 2.56

Next: TCTAGTTGGACAAAGGTCACACACTCGAAATGCG 6.62

Please answer likewise for ATCTCTAGGTAAGACTCAGGTCAGTGAAGAACGC 1.49

And then CCTAGTTGGTCAGGCGGTCACACACCGGATATGA , what is it? 1.41

Consider next the sequence TTACCAAGGTGAGCTGAGGTTGTTGATCCAACTC in the same way. -0.185

And the next one, AGAACGAGGGCAATGAGTTAATAGCACGGGTGGC ? 1.43

Check CATACAGGGTCAGCTACGCCAGAGTAGGGACGGC too. 4.44

TCATATCGGTAAAGGTGAAAGTCGAACGATATGA , same question. 1.5

Consider next the sequence CAAACTCGGTCACAGAGGTCAAAGTCCGTGCGTA in the same way. 6.57

Same thing, different sequence: GGAACGAGGGAAAAGTTGATAGCATCTGTCGACG -0.112

Field entry: CCGAGTAGGTTATGGGGCGTTCAGGCAACGGTGA 0.491

Can you handle CGTCCAAGGTCATAGGAGGTCGGTGAAGACAGAT next? 6.01

Same read-out for GGAACGAGGGCAAAGTTGATAACATCTGTCGACG ? 2.19
